The measurements presented in this section are drawn from ChEMBL document CHEMBL4699643.

- experimental.protocol: Chemical stability of compound in PBS at pH 7.3 by RP18-HPLC analysis
- Assay type: physicochemical
- measurement.parameters: buffer

- record.smiles: "CCCCCCCCCC(=O)c1ccc(COP(=O)(O)OP(=O)(O)OP(=O)(O)OC[C@@H]2C=C[C@H](n3cc(C)c(=O)[nH]c3=O)O2)cc1"
  Stabilty: "Stable"
- record.smiles: "CCCCCCCCCC(=O)c1ccc(COP(=O)(O)OP(=O)(O)OP(=O)(O)OC[C@H]2O[C@@H](n3cc(C)c(=O)[nH]c3=O)C[C@@H]2O)cc1"
  Stabilty: "Stable"
- record.smiles: "CCCCCCCCCC(=O)c1ccc(COP(=O)(O)OP(=O)(O)OP(=O)(O)OC[C@H]2O[C@@H](n3cnc4c(N)ncnc43)C[C@@H]2O)cc1"
  Stabilty: "Stable"
- record.smiles: "CCCCCCCCCCCCCCCCCC(=O)c1ccc(COP(=O)(O)OP(=O)(O)OP(=O)(O)OC[C@@H]2C=C[C@H](n3cc(C)c(=O)[nH]c3=O)O2)cc1"
  Stabilty: "Stable"
